# MEASURED_TARGET: FGFR1 (h) (Homo sapiens, UniProt P11362)
# Sequence (P11362 22-822): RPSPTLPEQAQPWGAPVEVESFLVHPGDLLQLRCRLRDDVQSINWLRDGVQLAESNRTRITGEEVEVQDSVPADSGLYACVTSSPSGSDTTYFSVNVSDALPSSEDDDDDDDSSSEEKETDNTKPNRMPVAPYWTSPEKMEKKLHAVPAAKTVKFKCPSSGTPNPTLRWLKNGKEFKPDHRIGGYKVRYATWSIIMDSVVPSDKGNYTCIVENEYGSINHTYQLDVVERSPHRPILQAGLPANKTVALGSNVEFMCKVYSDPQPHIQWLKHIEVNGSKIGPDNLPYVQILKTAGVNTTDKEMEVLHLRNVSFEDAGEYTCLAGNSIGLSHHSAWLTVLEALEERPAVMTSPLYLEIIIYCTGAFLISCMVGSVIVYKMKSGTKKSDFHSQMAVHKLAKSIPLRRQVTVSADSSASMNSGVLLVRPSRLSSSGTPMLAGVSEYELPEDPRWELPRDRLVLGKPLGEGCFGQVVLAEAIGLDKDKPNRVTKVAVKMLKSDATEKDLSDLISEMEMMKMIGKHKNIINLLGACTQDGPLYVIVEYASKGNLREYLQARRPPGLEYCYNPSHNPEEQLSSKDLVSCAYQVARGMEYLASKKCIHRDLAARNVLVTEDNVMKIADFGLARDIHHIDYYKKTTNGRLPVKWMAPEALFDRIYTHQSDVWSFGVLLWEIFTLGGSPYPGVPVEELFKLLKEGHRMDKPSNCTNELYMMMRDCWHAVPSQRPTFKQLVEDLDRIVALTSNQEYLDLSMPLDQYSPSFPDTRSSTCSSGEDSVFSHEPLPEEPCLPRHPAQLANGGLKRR
# ASSAY_NOTES: FGFR1 (enzymatic assay), TR-FRET
# Format: biochemical
# CONDITIONS_USED: FGFR 1 pIC50, 5 μM ATP, 60 min; pIC50 = -log IC50 (M); average if tested multiple times
MEASUREMENT_TYPE: IC50 (M)

The following compounds have reported results that may help.
- COMPOUND: "COc1cc(OC)cc(C(O)c2ccc3ncc(-c4cnn(C)c4)cc3c2)c1 (stereo not shown) [Compound 12]"
  IC50 [M]: "2.95e-07"
- COMPOUND: "COc1cc(OC)c(F)c(N(CCNC(C)C)c2ccc3ncc(-c4cnn(C)c4)cc3c2)c1 [Compound 2]"
  IC50 [M]: "1.32e-09"

P = COc1cc(OC)cc(N(CC#Cc2ncccc2OC)c2ccc3ncc(-c4cnn(C)c4)cc3c2)c1 [Compound 17]
Q = COc1cc(OC)cc(N(Cc2ncc[nH]2)c2ccc3ncc(-c4ccccc4)cc3c2)c1 [Compound 52]
// which entry reports the smaller IC50, P or Q ? Answer by stating the label of the chosen item.
Q
